Answer each item with its documented kon.
Target: SARS-CoV spike (S) (SARS-CoV, UniProt P59594 14-1195)
Experiment: SPR, VHH over immobilised S
The reply should consist of the numeric value with the unit placed after it.

Input NRCoV2-S2G3 VHH (VHH) VHH: QVQLVQSGGGSVQAGGSLRLSCAASGSTFGIFLMGWRRQAPGKQRELVAHITSGGATNYADSVKGRFTISRDNAKNTVYLQMNSLEPEDTAVYYCYTTKRDDASVYWGQGTQVTVSS . Output kon: 187000 M⁻¹ s⁻¹

Input NRCoV2-S2F3 VHH (VHH) VHH: EVQLVQSGGGLVQAGGSLRLSCATSVRILSVPAMGWYRQAPGKEREMVAVITSGGSTNYADSVKGRFTISRDNAKNTVYLQMNSLKLEDTAVYQCNLRDILSQPFWGQGTQVTVSS . Output kon: 282000 M⁻¹ s⁻¹

Input NRCoV2-11 VHH (VHH) VHH: EVQLVSSGGGLVQPGGSLRLSCAASGSSLDSYSVSWFRQAPGKEREWISFISRYYSSTYYTDSVKGRFTTSRDGDQKTVHLQMNSLKPEDTAVYYCAARSRDFSSPFSATDTYTSWGQGTQVTVSS . Output kon: 1.93e+06 M⁻¹ s⁻¹
